Entries and their measured TGI follow.
- Tested on: CCRF-CEM leukemia
- method-notes: NCI tumour cell line growth inhibition, 48 h

compound: CN(C)C=Nc1ccc2nonc2c1
measured-target: CCRF-CEM leukemia
TGI: > 100 µM
//
compound: COc1ccc(N=Nc2c(O)ccc3ccccc23)cc1
measured-target: CCRF-CEM leukemia
TGI: > 100 µM
//
compound: NCCCCCCn1c2c(c3ccccc3c1=O)C(=O)c1ccccc1-2
measured-target: CCRF-CEM leukemia
TGI: 3.21 µM
//
compound: CCOc1ccc2nc(S/C(=C/C=C(C#N)C#N)c3ccc(Cl)cc3)sc2c1
measured-target: CCRF-CEM leukemia
TGI: 3.19 µM
//
compound: COc1ccc(N2C(=O)C3c4[nH]c5ccc(C)cc5c4C4CCC(c5ccccc5)CC4C3C2=O)cc1 (stereo unspecified)
measured-target: CCRF-CEM leukemia
TGI: > 55.5 µM
//
compound: CCc1nnc(CC)n1-n1c(Cc2ccccc2)n[nH]c1=O
measured-target: CCRF-CEM leukemia
TGI: > 100 µM
//
compound: Clc1ccc(N2CCN(CCCN3CCN(c4cccc(Cl)c4)CC3)CC2)cc1
measured-target: CCRF-CEM leukemia
TGI: 25.3 µM
//
compound: Cc1cc(C)c(C2CC(O)C(CO)O2)cc1C (stereo unspecified)
measured-target: CCRF-CEM leukemia
TGI: > 100 µM
//
compound: O=c1ssc2ncccc12
measured-target: CCRF-CEM leukemia
TGI: > 100 µM
//
compound: C=C(Nc1ccc(OC)cc1OC)C(=O)Cc1cccc[n+]1[O-]
measured-target: CCRF-CEM leukemia
TGI: > 100 µM
//
compound: COc1ccc(C(=O)N/N=C2\C(=O)c3c(C)cc(C)cc3CC2(C)C)cc1
measured-target: CCRF-CEM leukemia
TGI: 65.6 µM

----------
- Tested on: SF-295 CNS
- method-notes: NCI tumour cell line growth inhibition, 48 h

compound: Cc1cc2c(c(C)c1O)C(C)(C)CN2C(=O)C(C)(C)C
TGI: > 100 µM
--
compound: CCCCCc1cc2cc3c(c(O)c2c(=O)[nH]1)C1(CC3)C(O)=c2c(=O)c3c(=O)cc(OC)c(=O)c=3c(=O)c2=C1O (stereo unspecified)
TGI: 18.7 µM
--
compound: CN(C)CCc1ccc(Cl)cc1Cl
TGI: > 100 µM
--
compound: Oc1c(-c2ccccc2)nc2ccccn12
TGI: > 100 µM
--
compound: O=C1c2ccccc2C2=Cc3ccccc3C(O)N12 (stereo unspecified)
TGI: > 100 µM
--
compound: CCCc1cc2c(cc1O)CC[C@@H]1[C@@H]2CC[C@]2(C)[C@@H](O)CC[C@@H]12
TGI: 17.8 µM
--
compound: CCCCN(C(=O)c1ccccc1)C1CCC(=O)c2[nH]c3ccccc3c21 (stereo unspecified)
TGI: > 100 µM
--
compound: CCOc1cc(C(c2c(O)c3ccccc3oc2=O)c2c(O)c3ccccc3oc2=O)ccc1OC
TGI: 41.7 µM
--
compound: COc1ccc(/C(Cl)=C(\C=O)c2ccc(Cl)c(Cl)c2)cc1
TGI: 22 µM
--
compound: C=C(CN(C)C)C1(c2ccccc2)CC2(CCCC2)C(=O)O1 (stereo unspecified)
TGI: > 100 µM
--
compound: Cc1nc2c([nH]c1C)c(O)cc1c3c(nc12)C(=O)CCC3
TGI: 90.8 µM
--
compound: COc1cc2c(/C=C3/C(=O)Nc4ccc(O)cc43)c(Cl)[nH]c2cc1C
TGI: 13.5 µM
--
compound: CCOC(=O)C(NC(=O)CC)(Nc1ccc(S(=O)(=O)Nc2ncccn2)cc1)C(F)(F)F (stereo unspecified)
TGI: > 100 µM
--
compound: O=S(=O)(O)c1cc(N=Nc2c(O)ccc3ccccc23)c2c(S(=O)(=O)O)cccc2c1
TGI: > 100 µM
--
compound: CN(C)c1ccc(/C=c2/c3ccccc3n3c2cc(-c2ccc(Cl)cc2)[n+]3C)cc1
TGI: 1.77 µM
--
compound: COc1cc(C2C3=C(COC3=O)Oc3cc4c(cc32)OCO4)cc(OC)c1OC (stereo unspecified)
TGI: 0.0575 µM
--
compound: O=C1/C(=C/c2ccc(O)c(O)c2)COc2ccc(-c3ccccc3)cc21
TGI: 13 µM
--
compound: CC(=O)CC(=O)Nc1c(C)[c]([Hg][O]C(C)=O)c(C)[c]([Hg][O]C(C)=O)[c]1[Hg][O]C(C)=O
TGI: 36.2 µM
--
compound: Cc1ccc(Nc2nc(C)c(C(=O)CC(=O)C(=O)Nc3ccc(Cl)cc3)s2)cc1
TGI: > 100 µM
--
compound: COS(=O)(=O)OCCC(NC(=O)OCc1ccccc1)C(=O)OCc1ccccc1 (stereo unspecified)
TGI: > 100 µM
--
compound: CC(NNC(=S)N1CCCCCC1)c1cccnn1 (stereo unspecified)
TGI: > 39.6 µM
